Experiment: NCI Yeast Anticancer Drug Screen. Data for the bub3 strain (AID 167)
Details: S. cerevisiae bub3 mutant strain, at 50.0 µM, stronger effect = higher value
Compounds without any hit were thinned out: in the full panel of roughly 79,000, 15% have a hit.
Kind request: treat 30% as inclusive, so growth inhibition at 30% or higher is t, anything lower is f.

Solved entries (count: 5):
molecule	label
Nc1ccc2c(c1)[nH]c(=O)c1ccc(Cl)cc12	t
N/N=C(/N)SCCCCCCCCCCS/C(N)=N/N	f
CCCN(CCC)C(=O)c1cccc2ccccc12	f
O=c1c2cnccc2cc2c3ccccc3ccn12	f
N#CC1=C(N)OC(c2ccccc2)=C(C#N)C1c1ccccc1[N+](=O)[O-] (stereo unspecified)	t

Could you now consider this next molecule?
Task: Is reported growth inhibition greater than or equal to 30% here: C1Cc2c3c4c(c5c2C(C1)CCC5)CCCC4CCC3
Output: f

---

Test: NCI Yeast Anticancer Drug Screen. Data for the cln2 rad14 strain (AID 165);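 further: 0% = growth equal to vehicle treated cultures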
Settings: S. cerevisiae cln2 rad14 strain, at 5.0 µM (retest, dose inferred, filed as 0.5), stronger effect = higher value
Compounds without any hit were thinned out: in the full panel of roughly 79,000, 15% have a hit.
parameter_measured: growth inhibition (%)
Number only, in %; omit the unit.

compound	readout_units	value_observed
CCOC(=O)/C(=C\c1ccc(Cl)cc1)C(C)=O	%	29

Task: Reported growth inhibition for N#CSCCSCc1ccc(Cl)cc1 : what is it?
Output: -6

Task: Reported growth inhibition for N#CC1=C(N)OC(/C=C/c2ccccc2)=C(C#N)C1c1ccccc1 (configuration not stated) : what is it?
Output: 33

Task: Reported growth inhibition for CCOC(=O)C(C(=O)OCC)C(=O)c1ccc2c(c1)OCO2 : what is it?
Output: 10

Task: Reported growth inhibition for CCc1nc(N)nc(N)c1-c1ccc(N2CCCCC2)c([N+](=O)[O-])c1 : what is it?
Output: -6

Task: Reported growth inhibition for O=C(O)c1c(-c2ccccc2)cc(-c2ccccc2)cc1-c1ccccc1 : what is it?
Output: 90

Task: Reported growth inhibition for O=c1oc2c/c(=C\c3ccccc3)c(=O)c3cccc1c3-2 : what is it?
Output: -7

---

Test: NCI Yeast Anticancer Drug Screen. Data for the sgs1 mgt1 strain (AID 161);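 further: 0% = growth of cultures given vehicle only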
Conditions: S. cerevisiae sgs1 mgt1 strain, at 50.0 µM (retest, dose inferred, filed as 5.0), stronger effect = higher value
This is part of a sample that, as a whole, favours compounds with a hit. Of some 79,000 tested, about 15% had one in any assay.
Kind request: treat 20% as inclusive, so growth inhibition at 20% or higher is fulfilled, anything lower is not fulfilled.

Solved entries (count: 3):
compound	label
O=[N+]([O-])c1ccc(SCc2ccccc2)c2nonc12	fulfilled
CCCC(=O)c1ccc(OC)cc1	not fulfilled
O=C1CSc2ccccc2-n2cccc21	not fulfilled

Task: Is reported growth inhibition greater than or equal to 20% here: CCOC(=O)C1CCC(=O)O1 (stereo not given)
Output: fulfilled

Task: Is reported growth inhibition greater than or equal to 20% here: C1=C(c2ccccc2)CCc2c1ccc1ccccc21
Output: not fulfilled

Task: Is reported growth inhibition greater than or equal to 20% here: COc1cc2c(cc1OC)-c1nc(Nc3ccccc3)sc1CC2
Output: fulfilled

Task: Is reported growth inhibition greater than or equal to 20% here: CCCCCCCCN/N=C(/C)CCCCCO
Output: not fulfilled

Task: Is reported growth inhibition greater than or equal to 20% here: COc1ccccc1N=Nc1c(N)nc(N)[nH]c1=O
Output: not fulfilled

Task: Is reported growth inhibition greater than or equal to 20% here: O=C(Nc1ccccc1)OC1CCCC1
Output: fulfilled

Task: Is reported growth inhibition greater than or equal to 20% here: COC(=O)/C=C/c1cccc[n+]1[O-]
Output: not fulfilled

Task: Is reported growth inhibition greater than or equal to 20% here: C=CC1(C)CCC2C(=CCC3C2(C)CC(O)C(O)C3(C)COC2OC(CO)C(O)C(O)C2O)C1 (stereo not given)
Output: fulfilled

Task: Is reported growth inhibition greater than or equal to 20% here: O=c1oc2ccccc2c(O)c1/C=N/C(=S)Nc1ccccc1
Output: fulfilled

Task: Is reported growth inhibition greater than or equal to 20% here: CC1=C(CO)C(=O)O[C@@H]([C@@H](C)[C@H]2CC[C@H]3[C@@H]4C[C@@H](O)C5=CC=CC(=O)[C@]5(C)[C@H]4CC[C@]23C)C1
Output: not fulfilled

Task: Is reported growth inhibition greater than or equal to 20% here: CCc1ccccc1NC(=O)C(=O)CC(=O)c1ccc(Cl)s1
Output: not fulfilled

Task: Is reported growth inhibition greater than or equal to 20% here: O=C(CNC(=O)Nc1ccc(NC(=O)NCC(=O)Nc2ccc(C3=NCCN3)cc2)cc1)Nc1ccc(C2=NCCN2)cc1
Output: not fulfilled

Task: Is reported growth inhibition greater than or equal to 20% here: COc1ccc(C2Oc3ccc(Cl)cc3C=C2[N+](=O)[O-])cc1 (stereo not given)
Output: fulfilled

Task: Is reported growth inhibition greater than or equal to 20% here: CC1=C(C)C(=O)C(CNCc2ccccc2)=[C-]C1=O.[Co].[c-]1[c-][c-][cH-][c-]1
Output: not fulfilled

Task: Is reported growth inhibition greater than or equal to 20% here: CCOC(=O)c1ccc(NC(=O)O/N=C(/Cl)CC)cc1
Output: fulfilled

Task: Is reported growth inhibition greater than or equal to 20% here: N#C/C(=C\C(Cl)=C/c1ccccc1)C(N)=S
Output: fulfilled

Task: Is reported growth inhibition greater than or equal to 20% here: NC(=S)c1cccc(C2Nc3ccccc3O2)c1 (stereo not given)
Output: not fulfilled

Task: Is reported growth inhibition greater than or equal to 20% here: O=P1(Cc2ccccc2)c2ccccc2-c2ccccc21
Output: fulfilled

Task: Is reported growth inhibition greater than or equal to 20% here: O=S(=O)(Sc1ccccc1)c1ccccc1
Output: fulfilled

Task: Is reported growth inhibition greater than or equal to 20% here: CCCCCCCCN(CCCCCCCC)CC(O)c1ccc2cc3c(nc2c1)CCCC3 (stereo not given)
Output: fulfilled

Task: Is reported growth inhibition greater than or equal to 20% here: O=S(=O)(Nc1ccccc1)c1ccccc1C#Cc1ccccc1
Output: fulfilled

Task: Is reported growth inhibition greater than or equal to 20% here: Oc1c(Cl)ccc2cccnc12
Output: fulfilled

---

Assay: NCI Yeast Anticancer Drug Screen. Data for the sgs1 mgt1 strain (AID 161);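 further: 0% = growth of cultures given vehicle only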
Conditions: S. cerevisiae sgs1 mgt1 strain, at 50.0 µM, stronger effect = higher value
This is part of a sample that, as a whole, favours compounds with a hit. Of some 79,000 tested, about 15% had one in any assay.
parameter_measured: growth inhibition (%)
Number only, in %; omit the unit.

compound	growth inhibition [%]
Nc1nc(N)c(C(=O)SCc2ccccc2)nc1Cl	97.4

Task: Reported growth inhibition for O=C(c1ccc([N+](=O)[O-])cc1)C(Br)C(Br)c1ccnc2ccccc12 (stereo not given) : what is it?
Output: 98.9

Task: Reported growth inhibition for O=C(COc1ccc(Cl)c(Cl)c1)Nc1ccc[n+](Cc2ccc(Cl)c(Cl)c2)c1 : what is it?
Output: 99.5

Task: Reported growth inhibition for CN(Cc1cnc2nc(N[Si](C)(C)C)nc(N[Si](C)(C)C)c2n1)c1ccc(C(=O)NC(CCC(=O)O[Si](C)(C)C)C(=O)O[Si](C)(C)C)cc1 (stereo not given) : what is it?
Output: 64.7

Task: Reported growth inhibition for CC12CCC(=O)C=C1CCC1C2CCC2(C)C(c3cnc[nH]3)CCC12 (stereo not given) : what is it?
Output: 65.2

---

Test: NCI Yeast Anticancer Drug Screen. Data for the rad50 strain (AID 155);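 further: 0% = growth of vehicle-only cultures of the same strain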
Conditions: S. cerevisiae rad50 strain growth inhibition; at 50.0 µM
This is part of a sample that, as a whole, favours compounds with a hit. Of some 79,000 tested, about 15% had one in any assay. The source made the active and inactive calls. Rule as the data show it: active = growth inhibition above about 70%; inactive = the rest.
Form entry, call: pick from t for active, f for inactive

molecule	label
COC(=O)c1cccc2cccc(C(=O)Nc3ccc(C)cc3C)c12	t

Task: Given BrCc1ccc2ccc3ccc(CBr)nc3c2n1 , state the outcome it received in this test.
Output: f

Task: Given ClC(Cl)(Cl)C1OCOC(C(Cl)(Cl)Cl)O1 (stereo unspecified) , state the outcome it received in this test.
Output: t

---

Assay: NCI Yeast Anticancer Drug Screen. Data for the bub3 strain (AID 167)
Details: S. cerevisiae bub3 mutant strain, at 50.0 µM
Method: Growth inhibition of yeast strains with defined genetic alterations is measured as a screen for potential anti-cancer activity. Selected strains with alterations in DNA damage repair or cell cycle control were exposed to compounds and growth inhibition was measured relative to vehicle treated controls. The strain used in this assay is bub3
The panel holds about 79,000 compounds, 15% with a hit somewhere; the sample as a whole holds those more often. The source made the active and inactive calls. Rule as the data show it: active = growth inhibition above about 70%; inactive = the rest.
Form entry, call: pick from active, inactive

Solved entries (count: 5):
compound	label
N#CSCCSCc1ccc(Cl)cc1	active
Cc1cc(C)c(CCCC(=O)c2c(C)cc(C)cc2C)c(C)c1	inactive
OC(CCN1CCOCC1)c1ccc(Sc2ccccc2)cc1 (stereo unspecified)	active
Cc1ccc(NCCN(C)C)c2c(=O)c3c(O)cccc3sc12	inactive
Clc1ccccc1C(Cc1c(Cl)cccc1Cl)Cn1ccnc1 (stereo unspecified)	active

Task: Given O=c1oc2ccccc2c(O)c1/C=N\c1nc(-c2ccccc2)cs1 , state the outcome it received in this test.
Output: inactive

Task: Given c1ccc(-c2cc(-c3cc(-c4ccccn4)[nH]n3)n[nH]2)nc1 , state the outcome it received in this test.
Output: inactive

Task: Given O=c1[nH]c2c([N+](=O)[O-])cc(Cl)cc2nc1/C=C(\O)c1ccco1 , state the outcome it received in this test.
Output: inactive

Task: Given Fc1cccc(CSc2ncnc3c2ncn3C2CCCS2)c1 (stereo unspecified) , state the outcome it received in this test.
Output: active

Task: Given Cc1cc(C)c(S(=O)(=O)c2c(C)cc(C)cc2C)c(C)c1 , state the outcome it received in this test.
Output: inactive

All figures here come from PubChem BioAssay (NCI).
